These data points were gathered from ChEMBL document CHEMBL1144730.

Measured MIC, listed per entry.
# Test system: Staphylococcus aureus
# Test name: Antibacterial activity against macrolide, licosamide and streptogramin resistant Staphylococcus aureus by broth microdilution method
# Format: functional

# Compound, MIC
rows = [
    ("CS[C@H]1O[C@H]([C@H](NC(=O)[C@H]2NC[C@@H]2CCC(F)F)[C@H](C)Cl)[C@H](O)[C@H](O)[C@H]1O", "> 4 µg/mL"),
    ("CCCC[C@H]1CN(C)[C@@H]1C(=O)N[C@@H]([C@H]1O[C@H](SC)[C@H](O)[C@@H](O)[C@H]1O)[C@H](C)Cl", "> 4 µg/mL"),
    ("CS[C@H]1O[C@H]([C@H](NC(=O)[C@H]2NC[C@@H]2CCC(C)C)[C@H](C)Cl)[C@H](O)[C@H](O)[C@H]1O", "> 8 µg/mL"),
    ("CCC[C@H]1CN[C@@H]1C(=O)N[C@@H]([C@H]1O[C@H](SC)[C@H](O)[C@@H](O)[C@H]1O)[C@H](C)Cl", "> 8 µg/mL"),
    ("CS[C@H]1O[C@H]([C@H](NC(=O)[C@H]2NC[C@@H]2CCC2CC2)[C@H](C)Cl)[C@H](O)[C@H](O)[C@H]1O", "> 4 µg/mL"),
    ("CS[C@H]1O[C@H]([C@H](NC(=O)[C@H]2NC[C@@H]2CCCC2CC2)[C@H](C)Cl)[C@H](O)[C@H](O)[C@H]1O", "> 4 µg/mL"),
    ("CS[C@H]1O[C@H]([C@H](NC(=O)[C@H]2NC[C@@H]2CCCC2CCC2)[C@H](C)Cl)[C@H](O)[C@H](O)[C@H]1O", "> 4 µg/mL"),
    ("CS[C@H]1O[C@H]([C@H](NC(=O)[C@H]2NC[C@@H]2CCC2CCC2)[C@H](C)Cl)[C@H](O)[C@H](O)[C@H]1O", "> 4 µg/mL"),
    ("CS[C@H]1O[C@H]([C@H](NC(=O)[C@H]2NC[C@@H]2CC2CC2)[C@H](C)Cl)[C@H](O)[C@H](O)[C@H]1O", "> 8 µg/mL"),
    ("CCCC[C@H]1CN(CCO)[C@@H]1C(=O)N[C@@H]([C@H]1O[C@H](SC)[C@H](O)[C@@H](O)[C@H]1O)[C@H](C)Cl", "> 8 µg/mL"),
    ("CCCC[C@H]1CN[C@@H]1C(=O)N[C@@H]([C@H]1O[C@H](SC)[C@H](O)[C@@H](O)[C@H]1O)[C@H](C)Cl", "> 8 µg/mL"),
    ("CCCCC[C@H]1CN[C@@H]1C(=O)N[C@@H]([C@H]1O[C@H](SC)[C@H](O)[C@@H](O)[C@H]1O)[C@H](C)Cl", "> 8 µg/mL"),
    ("CCC[C@@H]1C[C@@H](C(=O)N[C@@H]([C@H]2O[C@H](SC)[C@H](O)[C@@H](O)[C@H]2O)[C@H](C)Cl)N(C)C1 [CLINDAMYCIN]", "> 8 µg/mL"),
]

====

# Test system: Bacteroides fragilis
# Test name: Antibacterial activity against Bacteroides fragilis by broth microdilution method
# Type: functional
Assay endpoint: MIC

# Query smiles, Tested target, Val
data = [
    ("CCCC[C@H]1CN(CCO)[C@@H]1C(=O)N[C@@H]([C@H]1O[C@H](SC)[C@H](O)[C@@H](O)[C@H]1O)[C@H](C)Cl", "Bacteroides fragilis", "0.5 µg/mL"),
    ("CCCC[C@H]1CN[C@@H]1C(=O)N[C@@H]([C@H]1O[C@H](SC)[C@H](O)[C@@H](O)[C@H]1O)[C@H](C)Cl", "Bacteroides fragilis", "0.125 µg/mL"),
    ("CS[C@H]1O[C@H]([C@H](NC(=O)[C@H]2NC[C@@H]2CCC(C)C)[C@H](C)Cl)[C@H](O)[C@H](O)[C@H]1O", "Bacteroides fragilis", "0.5 µg/mL"),
    ("CS[C@H]1O[C@H]([C@H](NC(=O)[C@H]2NC[C@@H]2CCCC2CCC2)[C@H](C)Cl)[C@H](O)[C@H](O)[C@H]1O", "Bacteroides fragilis", "0.25 µg/mL"),
    ("CCCCC[C@H]1CN[C@@H]1C(=O)N[C@@H]([C@H]1O[C@H](SC)[C@H](O)[C@@H](O)[C@H]1O)[C@H](C)Cl", "Bacteroides fragilis", "0.125 µg/mL"),
    ("CS[C@H]1O[C@H]([C@H](NC(=O)[C@H]2NC[C@@H]2CC2CC2)[C@H](C)Cl)[C@H](O)[C@H](O)[C@H]1O", "Bacteroides fragilis", "0.5 µg/mL"),
    ("CCC[C@H]1CN[C@@H]1C(=O)N[C@@H]([C@H]1O[C@H](SC)[C@H](O)[C@@H](O)[C@H]1O)[C@H](C)Cl", "Bacteroides fragilis", "0.5 µg/mL"),
    ("CS[C@H]1O[C@H]([C@H](NC(=O)[C@H]2NC[C@@H]2CCC2CCC2)[C@H](C)Cl)[C@H](O)[C@H](O)[C@H]1O", "Bacteroides fragilis", "0.25 µg/mL"),
    ("CS[C@H]1O[C@H]([C@H](NC(=O)[C@H]2NC[C@@H]2CCC2CC2)[C@H](C)Cl)[C@H](O)[C@H](O)[C@H]1O", "Bacteroides fragilis", "0.25 µg/mL"),
    ("CS[C@H]1O[C@H]([C@H](NC(=O)[C@H]2NC[C@@H]2CCC(F)F)[C@H](C)Cl)[C@H](O)[C@H](O)[C@H]1O", "Bacteroides fragilis", "1 µg/mL"),
    ("CS[C@H]1O[C@H]([C@H](NC(=O)[C@H]2NC[C@@H]2CCCC2CC2)[C@H](C)Cl)[C@H](O)[C@H](O)[C@H]1O", "Bacteroides fragilis", "0.25 µg/mL"),
    ("CCCC[C@H]1CN(C)[C@@H]1C(=O)N[C@@H]([C@H]1O[C@H](SC)[C@H](O)[C@@H](O)[C@H]1O)[C@H](C)Cl", "Bacteroides fragilis", "0.125 µg/mL"),
]
